The measurements presented in this section are drawn from PubChem BioAssay.

Task for the reader: assign each of the following molecules its reported cell count.
assay: inhibitors of TNFa-induced NFkB p65 translocation, primary screen, imaging, HUVEC, MLSMR starter and 10KST1 sets (AID 438); details: HUVEC TNFa-induced p65 nuclear translocation; measured here: nuclei count (cytotoxicity indicator), at 2.08 µM;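 further: compound added about 3h40 before a 20 min TNFalpha stimulation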
Answers are plain numbers.

Here is how some molecules turned out for cell count.
molecule="O=C(Nc1ccc2c(c1)OCCO2)C1CCCN(S(=O)(=O)c2cnc[nH]2)C1 (stereo not given)" attribute_measured="cell count" readout_number=628
molecule="CCOC(=O)N1CCN(CC(O)COc2ccccc2C(C)CC)CC1 (stereo not given)" attribute_measured="cell count" readout_number=631
molecule=CCOc1ccc(OCC)c(NC(=O)CCCN2C(=O)c3cccnc3C2=O)c1 attribute_measured="cell count" readout_number=408
molecule=CN(Cc1ccccc1)C(=O)CNC(=O)Cn1cnc2ccccc2c1=O attribute_measured="cell count" readout_number=773
molecule=CCOc1cc(C2C3=C(CCCC3=O)N(C)C3=C2C(=O)CCC3)cc(Cl)c1O attribute_measured="cell count" readout_number=413

Hi! Can you tell me cell count for each of these molecules?
1. Cc1cc(NC(=O)Cc2cn3ccsc3n2)n(-c2ccccc2)n1
2. CCCn1nnc(NC(=O)c2cc(Br)cc(Br)c2OC)n1
3. CC(C)OCCCn1c(=N)c(C(N)=S)cc2c(=O)n3ccccc3nc21
4. Cn1c(=O)c2c(nc(CN3CCCCC3)n2CCc2ccccc2)n(C)c1=O
5. C=C(C)Cn1c(-c2ccc(OC)cc2)nc2ccccc21
6. Cc1ccc(NC(=O)CSc2nnc(-c3ccccn3)n2C)cc1
7. Cc1ccc(C)c(NC(=O)c2ccc3c(c2)N(Cc2ccc(F)cc2)C(=O)CS3=O)c1 (stereo not given)
8. Cn1c(SCC(=O)Nc2ccc3c(c2)OCO3)nnc1-c1cnccn1

1: 823; 2: 391; 3: 619; 4: 363; 5: 377; 6: 644; 7: 622; 8: 656

Quick batch: cell count for everything below.
1. COc1ccc(OC)c(C(=O)c2coc3ccc(O)c(CN4CCOCC4)c23)c1
2. CCOC(=O)N1CCN(C(=O)CCc2ccc(S(=O)(=O)NCCc3ccccc3)cc2)CC1
3. CCOc1ccccc1NC(=O)NC1CCN(CC(=O)Nc2ccc3c(c2)OCCO3)CC1

1. 282
2. 735
3. 285

Give me cell count for each of these molecules, listed below.
1. CN(C)c1oc(-c2ccccc2F)nc1C#N
2. COc1ccc(OC)c(C2C(C#N)=C(N)Oc3cc(C)n(Cc4ccccn4)c(=O)c32)c1 (stereo not given)
3. COC(=O)C1(C(F)(F)F)N=C2Sc3ccccc3N2C(N2CCOCC2)=N1 (stereo not given)
4. CCOC(=O)Oc1ccc2c(c1)C(C)=CC(C)(C)N2C(=O)OCC
5. OCc1cn(-c2ccccc2)nc1-c1ccc2c(c1)OCCO2

1: 576; 2: 736; 3: 760; 4: 618; 5: 438

Hey, can you go through the list below and give me cell count for every item?
1. Cc1ccc(S(=O)(=O)N(CC(=O)NCc2ccco2)Cc2ccccc2F)cc1
2. COCCCn1c(SCC(=O)Nc2cccc(C)n2)nnc1-c1ccco1
3. Cc1oc(-c2ccccc2F)nc1CS(=O)(=O)CC(=O)NCc1ccco1
4. COc1ccccc1NC(=O)C1=C(C)Nc2nc(CCCO)nn2C1c1cccnc1 (stereo not given)

1. 308
2. 601
3. 753
4. 318

For the 5 molecules below, give their cell count values.
1. CSC1=N/C(=C\C=C\c2cccs2)C(=O)S1
2. COc1ccc(C2=NOC(C(=O)NC3CCCCC3)C2)cc1OC (stereo not given)
3. O=C(Nc1ccc(CN2CCOCC2)cc1)c1cc2ccccn2n1
4. CCCC(=O)NCCc1cc2c(C)ccc(C)c2[nH]c1=O
5. CCc1c(C(=O)NCCc2ccc(OC)c(OC)c2)[nH]c(C)c1C(C)=O

374
832
579
592
274

// for each molecule below, give its cell count
1. Cc1c(NC(=O)C(C)OC(=O)c2cc3c4ccccc4n(C)c3s2)c(=O)n(-c2ccccc2)n1C (stereo not given)
2. O=S1(=O)C=C(Oc2ccc(F)cc2)c2ccccc21
3. CCOc1cc(S(=O)(=O)Nc2ccccn2)ccc1F
4. CCCCSc1cc(C)nc2ncnn12
5. C=CCn1c(SCC(=O)c2ccc(NS(=O)(=O)c3ccccc3)cc2)nnc1-c1cccs1

1: 405; 2: 377; 3: 382; 4: 416; 5: 682

Report cell count for each item below.
1. O=C(COc1ccc(F)cc1Br)N1CCc2ccccc21
2. Cc1nc(NCCCO)c(C#N)c2c1COC(C)(C)C2

[414, 588]

For each entry beneath this line, provide reported cell count.
1. CCCCn1c(=O)n(C)c(=O)c2c3c(sc21)COC(C)(C)C3
2. CCOCCn1c(SC)nc2c1c(=O)[nH]c(=O)n2C

[589, 498]

###

assay: inhibitors of E-selectin induction by TNFa, primary screen, imaging, HUVEC, immunofluorescence, MLSMR starter and 10KST1 sets (AID 487); conditions: HUVEC TNFalpha-induced E-selectin immunofluorescence imaging, at 2 µM; measured here: cell number, toxicity;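 further: 100% = median nuclei count of all wells on the same plate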
attribute measured: nuclei count (%)
Give bare numbers, in %.

Some solved cases for reference:
compound=CN(C)c1ccc(C=Nc2cnn(C)c2C(N)=O)cc1 readout_number=112
compound="Clc1ccc(C2Nc3ccccc3-n3cccc32)cc1 (configuration not stated)" readout_number=104
compound=Oc1ccc(-c2n[nH]c(=S)n2Cc2ccccc2)cc1 readout_number=116

Lab note: each compound below needs its nuclei count filled in.
1. COc1ccc(NC(=O)c2c(C)cc(=O)oc2C)c(OC)c1
2. COc1cc(-c2noc(-c3ccccc3C(=O)NCc3ccco3)n2)cc(OC)c1OC
3. COc1cc(OC)cc(-c2nnc(SCC(=O)Nc3cc(C)on3)o2)c1
4. O=C(NCc1ccccn1)c1ccc(=O)oc1
5. Cc1cc(NS(=O)(=O)c2ccc(NC(=O)Nc3ccc4c(c3)OCO4)cc2)no1
6. CC(C)OC(=O)CCCCCN1C(=O)CSC1=S

1: 111; 2: 156; 3: 111; 4: 151; 5: 112; 6: 114

###

experiment: inhibitors of TNFa-induced NFkB p65 translocation, primary screen, imaging, HUVEC, MLSMR starter and 10KST1 sets (AID 438); conditions: HUVEC TNFa-induced p65 nuclear translocation; measured here: nuclei count (cytotoxicity indicator), at 2.08 µM;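 further: compound added about 3h40 before a 20 min TNFalpha stimulation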
Hi there, I'd appreciate the recorded cell count for every entry that follows.
Numbers only.

compound=O=c1c2c3c(sc2n2cnnc2n1C1CCCCC1)CCC3 attribute_measured="cell count" readout_number=363
compound="COCc1[nH]nc2c1C(c1sccc1C)C(C#N)=C(N)O2 (stereo unspecified)" attribute_measured="cell count" readout_number=569
compound=c1ccc(-n2ncc3c(NC4CCCCCC4)ncnc32)cc1 attribute_measured="cell count" readout_number=691
compound=Cc1ccccc1-c1nc(Cc2ccccc2)no1 attribute_measured="cell count" readout_number=434
compound=COc1ccc(CCNc2oc(COc3ccccc3)nc2C#N)cc1 attribute_measured="cell count" readout_number=481

The recorded cell count for entry "Cn1c(Cn2cnc3ccccc32)nc2ccccc21" equals 543

###

assay: inhibitors of Chlamydomonas gravitaxis, primary screen, whole organism, Chlamydomonas reinhardtii, WT vs cilia-less mutant, absorbance, 96-well (AID 463189); details: OD600 absorbance, 2 days, at 10 µM, stronger effect = higher value;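 further: 0% = wild type cc124 cells in DMSO and 100% = ciliumless bld1 mutant cells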
Field: inhibition. Provide a value for each of the compounds that follow.
Answers are plain numbers, in %.

Here's what some known entries look like.
compound="CCOc1ccc2nc(NC(NC(C)=O)(C(=O)OC)C(F)(F)F)sc2c1 (configuration not stated)" output_unit=% readout_number=7.67
compound="COc1ccc(OC)c(C2/C(=C(/O)c3ccccc3)C(=O)C(=O)N2Cc2ccco2)c1 (configuration not stated)" output_unit=% readout_number=5.53
compound=CCN(CC)C(=O)CSc1nc2ccccc2c(=O)n1CC1CCCCC1 output_unit=% readout_number=7.22
compound=O=c1[nH]c2sc3c(c2c(=O)n1Cc1ccccc1)CCC3 output_unit=% readout_number=-9.09
compound="CCOC(=O)N1CCN(C2OC(=O)c3ccccc32)CC1 (configuration not stated)" output_unit=% readout_number=14
compound=CC1(C)Cc2c(c(N3CCOCC3)nc3sc4c(NCc5ccco5)nnnc4c23)CS1 output_unit=% readout_number=15.9

Field: inhibition. Fill in for each record below.
1. CCCOc1cccc(C2/C(=C(/O)c3ccc(F)cc3)C(=O)C(=O)N2CCN(C)C)c1 (configuration not stated)
2. CCCn1nc(Oc2nc(SC)nc(N(C)C)n2)ccc1=O
3. CC12CN3CC(=O)N4CC5(C)CN(CC(C)(C4)C5=O)C(=O)CN(C1)CC(C)(C3)C2=O
4. Cc1ccc(N(CN2C(=O)C3CC=CCC3C2=O)C(=O)c2ccco2)cc1Cl (configuration not stated)
5. Cc1cc(C)n(CC2CC(=O)N(c3ccc(F)c(Cl)c3)C2=O)n1 (configuration not stated)
6. CCn1c(SCC(=O)Nc2ccccc2C(=O)OC)nnc1-c1ccc(N)cc1

1. 12.9
2. -11.7
3. 6.7
4. 30.1
5. -11.1
6. 19.8

Answer for every listed entry: what is its inhibition? The entries follow.
1. CCOC(=O)CCNc1n[nH]c(=O)[nH]c1=O
2. CCCCOC(=O)c1[nH]c(C)c(C(=O)OC)c1C
3. CN(C)CCOC(=O)Cc1ccc(Cl)cc1
4. CC1(C(=O)CSc2nc3ccccc3[nH]2)CCC(=O)O1 (configuration not stated)
5. O=C1C=C(N2CCN(C3=CC(=O)CCC3)CC2)CCC1
6. Cn1c(NCC(O)c2ccccc2)nc2c1c(=O)n(Cc1ccc(Cl)cc1)c(=O)n2C (configuration not stated)
7. Cn1c(Cl)nc2c1c(=O)n(Cc1cccc(Br)c1)c(=O)n2C

1: -1.35; 2: 90.5; 3: 35.4; 4: 0.18; 5: -18.9; 6: 8.04; 7: -10.8

// for each compound below, give its inhibition
1. CCCCSc1nnc2n(CCc3ccccc3)c(=O)c3c4c(sc3n12)COC(C)(C)C4
2. Cc1nnc2n(-c3ccccc3)c(=O)c3c4c(sc3n12)COC(C)(C)C4
3. COC(=O)CCc1c(C)[nH]c(=S)[nH]c1=O

1: 129; 2: 38.4; 3: -5.54
